- Tested on: MDA-MB-453
- measurement.description: Antiproliferative activity against human MDA-MB-453 cells incubated for 24 hrs by CCK-8 assay
- Assay type: functional, cell-based
- assay.setup: MDA-MB-453, 24 h
observed.property: IC50 (µM)
Write the number in µM without appending the unit.

The reported value for COC(=O)C(NC(=O)CCCCC1CCSC(c2ccc(OC)cc2)S1)S[C@H](CC=C(C)C)C1=CC(=O)c2c(O)ccc(O)c2C1=O (stereo partly specified) in terms of IC50 is 6.94

====

- System: U2OS
- measurement.description: Antiproliferative activity against human U2OS cells assessed as inhibition of cell growth incubated for 48 hrs by MTT assay
- Type: functional, cell-based
observed.property: IC50

The reported value for CC(=O)N[C@@H](CSC1=CC(=O)c2ccccc2C1=O)C(=O)O in terms of IC50 is 1810 nM
